Assay: Pharmacokinetics in Sprague Dawley rats (plasma and brain concentrations, PK parameters)
Type: in vivo
Details: Sprague-Dawley, rat, plasma, iv, 3 mg/kg, Sprague Dawley rat, iv 3 mg/kg, plasma, 0.25 h, Rat 2; read-out: Concentration Rat 2
measureName: concentration at 0.25 h (ng/mL)
Note: unit ng/mL is implicit; provide only the numeric part.

Data request: Reported concentration at 0.25 h, molecule O=C1CCC(N2C(=O)c3cccc(NCCOCCOCCNCc4ccc(-n5cc(NC(=O)c6coc(-c7ccnc(NCC8CC8)c7)n6)c(C(F)F)n5)cc4)c3C2=O)C(=O)N1 (stereo not shown) : ____
Data returned: 418

====

Test: Pharmacokinetics in CD-1 mice (plasma concentrations, PK parameters)
Assay type: in vivo
Settings: CD-1, mouse, plasma, po, 30 mg/kg, mouse (CD1) po 30 mg/kg; Mean; read-out: AUCInf
Protocol: Pharmacokinetics for I-127, I-172 and I-210 were determined in Sprague Dawley rats or CD-1 mice by dosing intravenous (IV), subcutaneous (SC) or per oral (PO) using facility SOPs and sampling plasma at required time points. […] Compounds were extracted from plasma, injected on reverse phase HPLC, eluted with a gradient from 5% to 95% acetonitrile in water and quantified by mass spectrometry with internal standard. […]
measureName: AUC(0-inf) (ng·h/mL)
Note: unit ng·h/mL is implicit; provide only the numeric part.

Data request: Reported AUC(0-inf), compound O=C1CCC(N2C(=O)c3cccc(NCCOCCOCCNCc4ccc(-n5cc(NC(=O)c6coc(-c7ccnc(NCC8CC8)c7)n6)c(C(F)F)n5)cc4)c3C2=O)C(=O)N1 (stereo not shown) [I-210] : ____
Data returned: 753

====

Assay: Pharmacokinetics in CD-1 mice (plasma concentrations, PK parameters)
Type: in vivo
Conditions: CD-1, mouse, plasma, po, 30 mg/kg, mouse (CD1) po 30 mg/kg; 8 h; Mean
measureName: concentration at 8 h
I'd appreciate it if you wrote the number followed by its unit.

Data request: Reported concentration at 8 h, molecule O=C1CCC(N2C(=O)c3cccc(NCCOCCOCCNCc4ccc(-n5cc(NC(=O)c6coc(-c7ccnc(NCC8CC8)c7)n6)c(C(F)F)n5)cc4)c3C2=O)C(=O)N1 (stereo not shown) [I-210] : ____
Data returned: 22.8 ng/mL

====

The following molecules are shown together with reported DC50 values.
Target: IRAK4 (Homo sapiens)
Sequence (Q9NWZ3 1-460): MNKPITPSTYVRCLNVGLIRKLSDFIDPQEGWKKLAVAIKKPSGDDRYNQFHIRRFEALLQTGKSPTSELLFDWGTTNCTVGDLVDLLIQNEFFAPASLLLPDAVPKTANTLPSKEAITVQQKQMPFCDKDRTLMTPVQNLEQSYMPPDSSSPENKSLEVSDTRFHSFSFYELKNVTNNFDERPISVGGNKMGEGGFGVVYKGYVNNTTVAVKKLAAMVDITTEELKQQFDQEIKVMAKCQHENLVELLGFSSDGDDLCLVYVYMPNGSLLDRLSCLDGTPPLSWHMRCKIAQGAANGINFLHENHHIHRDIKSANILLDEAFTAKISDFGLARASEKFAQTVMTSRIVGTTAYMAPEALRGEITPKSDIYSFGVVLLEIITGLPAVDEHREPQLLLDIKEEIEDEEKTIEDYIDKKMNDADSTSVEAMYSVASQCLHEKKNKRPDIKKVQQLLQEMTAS
Test: OCI-LY-10 MSD assay for IRAK4 DC50
Format: cell-based
Set-up: endogenous in cells; host or cells: OCI-LY10
Settings: OCI-LY10 cells, 4 hr incubation, concentration required to degrade 50% of protein

Cn1cc(NC(=O)c2coc(-c3ccnc(NCC(F)(F)F)c3)n2)c(CNCCOCCOCCOCCOCCOCCNc2cccc3c2C(=O)N(C2CCC(=O)NC2=O)C3=O)n1 (centres unmarked) [I-522]: > 1000 nM

Data request: Reported DC50, molecule Cc1ncsc1-c1ccc(CNC(=O)[C@@H]2C[C@@H](O)CN2C(=O)[C@@H](NCCOCCOCCOCCNC(=O)c2nn(C)cc2NC(=O)c2coc(-c3ccnc(NCC(F)(F)F)c3)n2)C(C)(C)C)cc1 [I-295] : ____
Data returned: > 1000 nM

Data request: Reported DC50, molecule Cn1cc(NC(=O)c2coc(-c3ccnc(NCC(F)(F)F)c3)n2)c(C(=O)NCCOCCOCCOCCOCCOCCNc2cccc3c2C(=O)N(C2CCC(=O)NC2=O)C3=O)n1 (centres unmarked) [I-214] : ____
Data returned: > 1000 nM

Data request: Reported DC50, molecule CN[C@@H](C)C(=O)N[C@H](C(=O)N1Cc2cc(OCCOCCOCCOCCOCCNC(=O)c3ccc(-n4cc(NC(=O)c5coc(-c6ccnc(NCC7CC7)c6)n5)c(C(F)F)n4)cc3)ccc2C[C@H]1C(=O)N[C@@H]1CCCc2ccccc21)C(C)(C)C [I-519] : ____
Data returned: 500 to 1000 nM

Data request: Reported DC50, molecule CN[C@@H](C)C(=O)N[C@H](C(=O)N1Cc2cc(OCCOCCOCCOCCNC(=O)c3ccc(-n4cc(NC(=O)c5coc(-c6ccnc(NCC7CC7)c6)n5)c(C(F)F)n4)cc3)ccc2C[C@H]1C(=O)N[C@@H]1CCCc2ccccc21)C(C)(C)C [I-521] : ____
Data returned: > 1000 nM
